System: BT-549 breast
Protocol details: NCI-60 one-dose screen, 48 h
Experimental conditions: 10 µM
This is part of a sample that, as a whole, favours compounds with a hit. Of some 83,000 tested, about 20% had one in any assay. The source made the active and inactive calls. Rule for the calls: active = growth percent below 10; inactive = the rest.
Classes used: active, inactive

Compound | Target under test | Answer label
OC1CCCCC1N1CCC(c2ccccc2)CC1 (centres undefined) | BT-549 breast | inactive
CNC(=O)Oc1ccccc1 | BT-549 breast | inactive
CCOC(=O)/C(C#N)=C/c1ccc(N(CCCl)CCCl)cc1 | BT-549 breast | inactive
CC[C@]12C=CCN3CC[C@@]4(c5ccc(OC)cc5N(C)[C@H]4[C@@](O)(C(=O)OC)[C@@H]1OC(=O)CCCN1CCN(CCCC(=O)O[C@@H]4[C@]5(CC)C=CCN6CC[C@@]7(c8ccc(OC)cc8N(C)[C@H]7[C@@]4(O)C(=O)OC)[C@@H]65)CC1)[C@@H]32 | BT-549 breast | active
